// provenance: patent US20170008955A1

MEASUREMENT_TARGET: T1, cSNK:BSA conjugate (bovine, head-to-tail cyclized; conjugated to BSA carrier)
T1 construct: also called BSA-cSNK
T1 sequence (P02769 25-607 limits assumed): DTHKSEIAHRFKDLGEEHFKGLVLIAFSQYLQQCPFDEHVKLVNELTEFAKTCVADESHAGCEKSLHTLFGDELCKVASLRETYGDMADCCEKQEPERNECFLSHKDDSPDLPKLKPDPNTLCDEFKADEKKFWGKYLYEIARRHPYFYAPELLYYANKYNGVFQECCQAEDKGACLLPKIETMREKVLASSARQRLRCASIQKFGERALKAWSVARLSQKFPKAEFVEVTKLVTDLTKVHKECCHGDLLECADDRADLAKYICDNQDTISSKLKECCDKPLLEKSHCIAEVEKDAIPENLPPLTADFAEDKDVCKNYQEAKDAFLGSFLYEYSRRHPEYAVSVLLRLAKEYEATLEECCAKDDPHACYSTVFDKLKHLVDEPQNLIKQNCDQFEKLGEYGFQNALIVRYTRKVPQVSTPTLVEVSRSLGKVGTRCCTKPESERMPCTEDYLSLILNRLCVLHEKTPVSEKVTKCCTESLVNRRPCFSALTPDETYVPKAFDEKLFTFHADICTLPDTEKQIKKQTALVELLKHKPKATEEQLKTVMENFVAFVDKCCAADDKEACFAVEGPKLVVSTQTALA
TEST_NAME: BLI 2:1 fit, site 1; 12.5 nM row
ATTRIBUTE_MEASURED: kon (M⁻¹ s⁻¹)
Answer format: numeric, M⁻¹ s⁻¹ implied, no suffix.

Return reported kon. Input binder: rehu5E3-IgG4 (antibody, V domains shown, human IgG4/kappa; also called IgG4 rehu version) VH: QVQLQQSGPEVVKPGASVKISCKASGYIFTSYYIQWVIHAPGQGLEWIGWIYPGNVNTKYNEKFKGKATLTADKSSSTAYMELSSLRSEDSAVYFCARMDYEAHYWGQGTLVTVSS VL: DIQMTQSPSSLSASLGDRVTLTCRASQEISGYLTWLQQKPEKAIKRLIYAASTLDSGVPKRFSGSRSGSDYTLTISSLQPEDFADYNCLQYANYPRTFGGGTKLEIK
692000
